Origin of measurements: patent US5994563A

Test system: human osteoblastic (TE85) tyrosinephosphate phosphatase
Assay type: biochemical
Details: te85 cell extract, 15 min

compound	test-system	TF85 % @ 300 μM, %
Cc1ccc(CCSc2ccc([N+](=O)[O-])cc2C(O)P(=O)(O)O)cc1 (stereo not shown)	human osteoblastic (TE85) tyrosinephosphate phosphatase	73
O=[N+]([O-])c1ccc(Sc2ccc(Cl)cc2)c(C(O)P(=O)(O)O)c1 (stereo not shown)	human osteoblastic (TE85) tyrosinephosphate phosphatase	95
O=[N+]([O-])c1cc(C(O)P(=O)(O)O)cs1 (stereo not shown)	human osteoblastic (TE85) tyrosinephosphate phosphatase	79
Cc1ccc(Oc2ccc([N+](=O)[O-])cc2C(O)P(=O)(O)O)cc1 (stereo not shown)	human osteoblastic (TE85) tyrosinephosphate phosphatase	90
